Assign koff to each entry below.
Target: T1, Extracellular domain (ECD) of the canine IL-4 receptor alpha-V5 epitope-AviTag-His Tag (canine)
T1 construct: monomeric form isolated by size exclusion; also called canine IL-4RA-V5-Avi-His; canine IL-4RA
T1 chain: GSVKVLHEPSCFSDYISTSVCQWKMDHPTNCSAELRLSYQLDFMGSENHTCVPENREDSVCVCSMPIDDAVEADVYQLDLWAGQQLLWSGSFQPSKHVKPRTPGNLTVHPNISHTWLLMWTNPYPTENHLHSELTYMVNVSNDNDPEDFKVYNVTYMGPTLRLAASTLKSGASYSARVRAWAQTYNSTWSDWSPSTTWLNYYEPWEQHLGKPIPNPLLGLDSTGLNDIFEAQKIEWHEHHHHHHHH
Test: SPR, Fab-SASA captured on BSA;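 also: biacore T200 SPR, Fab-SASA variants from E. coli conditioned medium captured on BSA-coated CM5 chip, canine IL-4RA injected 120 s then 420 s dissociation, 1:1 model fit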
Answers are plain numbers, in s⁻¹.

Batch: koff for all items listed.
1. TB640_005 Fab-SASA VL-I33A (Fab, V domains shown, not shown: SASA tag then His-tag) VH: EVQLVESGGDLVKPGGSLRLSCVASGFTFRDYAMTWVRQAPGKGLQWVSLISGSGGKTYYADAVKGRFTISRDNAKNTLYLQMNSLRAEDTAVYYCAVDRLTKTIRPQYYGLWVWGQGTLVTVSS VL: DIVMTQTPLSLSVSPGETASISCRSSQSLLYSAGYNYLDWYLQKPGQSPQGLIYLGSKRASGVPDRFSGSGSGTDFTLRISRVEANDTGVYYCMQGLQSPLTFGQGTKLEIKR
2. TB640_005 Fab-SASA VL-A60M (Fab, V domains shown, not shown: SASA tag then His-tag) VH: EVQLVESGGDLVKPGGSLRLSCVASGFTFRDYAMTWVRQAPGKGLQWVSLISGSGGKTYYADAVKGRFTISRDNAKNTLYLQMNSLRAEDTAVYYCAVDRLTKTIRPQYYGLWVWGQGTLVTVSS VL: DIVMTQTPLSLSVSPGETASISCRSSQSLLYSIGYNYLDWYLQKPGQSPQGLIYLGSKRMSGVPDRFSGSGSGTDFTLRISRVEANDTGVYYCMQGLQSPLTFGQGTKLEIKR

1: 0.00153; 2: 0.00085
